Test system: P388 leukemia ip, CD2F1 mice, survival T/C
Test: NCI In Vivo Anticancer Drug Screen. Data for tumor model P388 Leukemia (intraperitoneal) in CD2F1 (CDF1) mice
Measurement Context: endpoint: median survival time; dose: 120.0 mg/kg/injection; schedule: Q01DX005 (ip); vehicle: saline with Tween-80; higher = longer survival
Toxic doses and inconclusive results are not listed.
Property Measured: T/C

Compound	T/C
CC(C)c1c(OC(=O)N(C)C)c(C#N)c2[nH]c3ccccc3n2c1=O	94 % of control
CC(C)(C)C(=O)CC(=O)C(F)(F)C(F)(F)C(F)(F)F.CC(C)(C)C(=O)CC(=O)C(F)(F)C(F)(F)C(F)(F)F.CC(C)(C)C(=O)CC(=O)C(F)(F)C(F)(F)C(F)(F)F.[Ho]	111 % of control
O=C(CNC(=O)NCc1ccco1)NNC(=O)Nc1ccc(Cl)c([N+](=O)[O-])c1	94 % of control
CC(=O)CCC12CCC(=O)N1Cc1ccccc1C2=O (stereo not drawn)	123 % of control
CN1C(=O)n2c(nc3ccccc32)C(Cl)(Cl)C1=O	98 % of control
COc1ccc(C(=O)CCc2cccc(NC(=O)CCCl)c2)cc1	94 % of control

# input Provide one value: measured T/C of O=C(O)C12C3CCC(O3)C1(C(=O)O)C1CCC2O1 (stereo not drawn)
# output 90 % of control

# input Provide one value: measured T/C of Cc1ccc(/C=C/C(=N/Nc2ccccc2)C(C)CN(C)C)cc1 (stereo not drawn)
# output 89 % of control

====

System: P388 leukemia ip, CD2F1 mice, survival T/C
Test: NCI In Vivo Anticancer Drug Screen. Data for tumor model P388 Leukemia (intraperitoneal) in CD2F1 (CDF1) mice
Measurement Context: endpoint: median survival time; dose: 50.0 mg/kg/injection; schedule: Q01DX009 (ip); vehicle: saline; higher = longer survival
Inconclusive results and toxic doses are left out.
Measured T/C accompanies every entry in the list below.

                           compound   endpoint_result
0  CCOC([O-])=N/C(C)=N/[n+]1ccccc1C  107 % of control

# input Provide one value: measured T/C of CCOC([O-])=N/C(C)=N/[n+]1ccccc1
# output 104 % of control

# input Provide one value: measured T/C of O=c1[nH]c(=S)ccn1C1OC(CO)C(O)C1O (stereo unspecified)
# output 97 % of control

====

System: P388 leukemia ip, CD2F1 mice, survival T/C
Test: NCI In Vivo Anticancer Drug Screen. Data for tumor model P388 Leukemia (intraperitoneal) in CD2F1 (CDF1) mice
Measurement Context: endpoint: median survival time; dose: 100.0 mg/kg/injection; schedule: Q01DX009 (ip); vehicle: saline; higher = longer survival
Description: The antitumor activity of compounds was measured in mice bearing transplantable tumors. Survival or tumor size were measured and the results are expressed as the measurement made in the treated group (T) divided by the measurement made in the vehicle treated control group (C). The tumor model used in this assay is P388 Leukemia (intraperitoneal) in CD2F1 (CDF1) mice
Inconclusive results and toxic doses are left out.
Measured T/C accompanies every entry in the list below.

Answered examples (5):
In [3]: df
Out[3]:
                                   molecule   endpoint_result
0   CC1(C)CC(=O)C2=C(C1)Oc1c(Cl)cc(Cl)cc1C2   98 % of control
1  O=c1[nH]c(=S)ccn1C1OC(CO)C(O)C1O (stereo not drawn)  101 % of control
2                   O=S(=O)(Cc1ccccc1)C1CC1  119 % of control
3    O=C1CSc2ncccc2N1c1ccc([N+](=O)[O-])cn1  100 % of control
4                    CC1(C)NC(=S)N(O)C1(C)C   98 % of control

# input Provide one value: measured T/C of O=C1c2ccccc2COC1c1ccccc1 (stereo not drawn)
# output 111 % of control

# input Provide one value: measured T/C of CSc1cccc([N+](=O)[O-])c1
# output 95 % of control

# input Provide one value: measured T/C of CCCCCCCCCCCCCCCCCC(=O)CC(=O)C(F)(F)F
# output 99 % of control

====

Test system: P388 leukemia ip, CD2F1 mice, survival T/C
Test: NCI In Vivo Anticancer Drug Screen. Data for tumor model P388 Leukemia (intraperitoneal) in CD2F1 (CDF1) mice
Measurement Context: endpoint: median survival time; dose: 25.0 mg/kg/injection; schedule: Q01DX005 (ip); vehicle: Klucel (hydroxypropylcellulose) (HPC); higher = longer survival
Description: The antitumor activity of compounds was measured in mice bearing transplantable tumors. Survival or tumor size were measured and the results are expressed as the measurement made in the treated group (T) divided by the measurement made in the vehicle treated control group (C). The tumor model used in this assay is P388 Leukemia (intraperitoneal) in CD2F1 (CDF1) mice
Toxic doses and inconclusive results are not listed.
Property Measured: T/C

In [3]: df
Out[3]:
                                   compound                             target_entity   endpoint_result
0              CN(C)C(=O)Sc1nnc(C(C)(C)C)o1  P388 leukemia ip, CD2F1 mice, survival T/C  100 % of control
1               Cc1cc[n+](C)c(Cc2ccccc2)c1C  P388 leukemia ip, CD2F1 mice, survival T/C  100 % of control
2  CCOC(=O)C1=CNc2c(C#N)cnn2C1(C(=O)OCC)c1c[nH]c2ccccc12 (configuration not stated)  P388 leukemia ip, CD2F1 mice, survival T/C  109 % of control
3    COc1ccc(/C=C/C(=O)c2ccccc(=O)c2O)cc1OC  P388 leukemia ip, CD2F1 mice, survival T/C   99 % of control
4  Nc1nc(Cl)c2nnn(C3CC(O)C(CO)C3)c2n1 (configuration not stated)  P388 leukemia ip, CD2F1 mice, survival T/C  119 % of control
5  N=C(N)c1ccc(N=Nc2cc(N=Nc3ccccc3)ccc2O)cc1  P388 leukemia ip, CD2F1 mice, survival T/C  109 % of control

Proceed to the following item.
# input Provide one value: measured T/C of CC(=NCCCCN=C(C)c1cc(C)cc(Br)c1O)c1cc(C)cc(Br)c1O
# output 100 % of control

====

System: P388 leukemia ip, CD2F1 mice, survival T/C
Test: NCI In Vivo Anticancer Drug Screen. Data for tumor model P388 Leukemia (intraperitoneal) in CD2F1 (CDF1) mice
Measurement Context: endpoint: median survival time; dose: 400.0 mg/kg/injection; schedule: Q04DX002 (ip); vehicle: Klucel (hydroxypropylcellulose) (HPC); higher = longer survival
Inconclusive results and toxic doses are left out.
Property Measured: T/C

Answered examples (3):
Compound	T/C
O=C1SC(Nc2ccccc2)/C(=N\N=C2/C(Nc3ccccc3)SC(=O)N2Cc2ccccc2)N1Cc1ccccc1 (centres undefined)	91 % of control
C1CCNCC1.CC(=O)[C-](C(C)=O)c1ccccc1.CC(=O)[C-](C(C)=O)c1ccccc1.CC(=O)[C-](C(C)=O)c1ccccc1.CC(=O)[C-](C(C)=O)c1ccccc1.[Eu+3]	97 % of control
CCN(Cc1cc(Nc2ccnc3cc(Cl)ccc23)ccc1O)C(=O)N1CCN(C)CC1	96 % of control

# input Provide one value: measured T/C of COc1c(COC(C)=O)ccc2c1C(=O)c1ccccc1C2=O
# output 93 % of control

====

Tested on: P388 leukemia ip, CD2F1 mice, survival T/C
Test: NCI In Vivo Anticancer Drug Screen. Data for tumor model P388 Leukemia (intraperitoneal) in CD2F1 (CDF1) mice
Measurement Context: endpoint: median survival time; dose: 6.25 mg/kg/injection; schedule: Q01DX009 (ip); vehicle: Klucel (hydroxypropylcellulose) (HPC)
Toxic doses and inconclusive results are not listed. Rule for the calls: active = survival T/C of 150% or more; inactive = T/C below 125% in these data.
In this exercise, the only acceptable responses are active, inactive

Some solved cases for reference:
In [3]: df
Out[3]:
                                   molecule                             target_entity  classification
0  c1ccc(N=NC(c2ccccc2)(c2ccccc2)c2ccccc2)cc1  P388 leukemia ip, CD2F1 mice, survival T/C        inactive
1                Nc1ncnc2c1C=C(B(O)O)B(O)N2  P388 leukemia ip, CD2F1 mice, survival T/C        inactive
2  CCN1/C(=C/C=C2\CCC(/C=C/c3sc4ccc(Cl)cc4[n+]3CC)=C2N(c2ccccc2)c2ccccc2)Sc2ccc(Cl)cc21  P388 leukemia ip, CD2F1 mice, survival T/C          active
3  CC1=CC=C(C(=O)C(Br)C(Br)c2ccccc2)C1 (configuration not stated)  P388 leukemia ip, CD2F1 mice, survival T/C        inactive
4  CC(C)c1ccc(/C=N\NC(=S)N/N=C\c2ccc(C(C)C)cc2)cc1  P388 leukemia ip, CD2F1 mice, survival T/C        inactive

# input Please indicate how the test categorized CCCCOP(=O)(OCCCC)OC(=C(F)F)C(F)(F)P(=O)(OCCCC)OCCCC .
# output inactive

# input Please indicate how the test categorized c1cc2ccc3ccc(C4CO4)c4ccc(c1)c2c34 (configuration not stated) .
# output inactive

Values from PubChem BioAssay AID330
